The reported numbers originate from patent US12441710B2.

List of Papp A→B at 2 h, 3 μM values.
# System: MDR1
# method summary: MDCK-MDR1 permeability assay
# Format: in vitro ADME
# measurement setup: dog, apical to basolateral, 3 μM test compound, 2 hours at 37 degrees C
Give just the number in ×10⁻⁶ cm/s; leave the unit off.

Lookup: API: value(readout= Papp A→B at 2 h, 3 μM, system= MDR1, query= CS(=O)(=O)N[C@H]1CCN(c2nccc3ncnn23)CC1COC1CCC(c2ccccc2)CC1 (some centres unmarked) [Compound 44] )
Found: 3

Lookup: I'm curious: which Papp A→B at 2 h, 3 μM was measured for CS(=O)(=O)N[C@H]1CCN(c2ccccn2)CC1COC1CCC(c2ccncc2)CC1 (some centres unmarked) [Compound 4] tested on MDR1?
Found: 1.2

Lookup: What measured Papp A→B at 2 h, 3 μM is associated with CS(=O)(=O)N[C@H]1CCN(Cc2ccncc2)CC1COC1CCC(c2ccccc2)CC1 (some centres unmarked) [Compound 41] on MDR1?
Found: 1.7

Lookup: Provide value of Papp A→B at 2 h, 3 μM for this record tested with MDR1: CS(=O)(=O)N[C@H]1CCN(c2ccccn2)CC1COC1CCC(c2ccncn2)CC1 (some centres unmarked) [Compound 8]
Found: 1.8

Lookup: Value wanted: Papp A→B at 2 h, 3 μM (MDR1) of entry CS(=O)(=O)N[C@H]1CCN(c2cccnn2)CC1COC1CCC(c2ccccc2)CC1 (some centres unmarked) [Compound 22]
Found: 1.3

Lookup: Reported Papp A→B at 2 h, 3 μM for MDR1, given CS(=O)(=O)N[C@H]1CCN(c2cccc3ncnn23)CC1COC1CCC(c2ccccc2)CC1 (some centres unmarked) [Compound 43] ?
Found: 2.4
